Each entry below carries its reported combination Emax.
- Test system: DEL (T-Cell Non-Hodgkin's Lymphoma)
- Assay procedure: combination Emax (second highest fraction inhibited in the dose matrix, 72 h); higher = more inhibition; extreme values may be limits of the assay
Quantity kind: combination Emax

>  <Molecule>
COc1cccc(OCCCN)c1-c1cc(Nc2cnc(C#N)cn2)n[nH]1 [Prexasertib] + C=CCn1c(=O)c2cnc(Nc3ccc(N4CCN(C)CC4)cc3)nc2n1-c1cccc(C(C)(C)O)n1 [AZD1775] (first compound max 1 µM, partner max 1 µM)

>  <Subject of test>
DEL (T-Cell Non-Hodgkin's Lymphoma)

>  <Quantity kind>
combination Emax

>  <Value reported>
1

$$$$
>  <Molecule>
CN(CCO)CC[C@H](CSc1ccccc1)Nc1ccc(S(=O)(=O)NC(=O)c2ccc(N3CCC([C@@H](O)c4ccccc4-c4ccc(Cl)cc4)CC3)cc2)cc1S(=O)(=O)C(F)(F)F [AZD4320] + C=CCn1c(=O)c2cnc(Nc3ccc(N4CCN(C)CC4)cc3)nc2n1-c1cccc(C(C)(C)O)n1 [AZD1775] (first compound max 1 µM, partner max 1 µM)

>  <Subject of test>
DEL (T-Cell Non-Hodgkin's Lymphoma)

>  <Quantity kind>
combination Emax

>  <Value reported>
1

$$$$
>  <Molecule>
COc1cccc(OCCCN)c1-c1cc(Nc2cnc(C#N)cn2)n[nH]1 [Prexasertib] + CN(C)CCCOc1ccc(-c2ccc3ncc4c(c3c2)n(C2CCOCC2)c(=O)n4C)cn1 [AZD0156] (first compound max 1 µM, 7x7, partner max 1 µM)

>  <Subject of test>
DEL (T-Cell Non-Hodgkin's Lymphoma)

>  <Quantity kind>
combination Emax

>  <Value reported>
1

$$$$
>  <Molecule>
COc1cccc(OCCCN)c1-c1cc(Nc2cnc(C#N)cn2)n[nH]1 [Prexasertib] + Cc1cc2ncnn2cc1Nc1ncc2c(n1)n(C1CCOCC1)c(=O)n2C [AZD7648] (first compound max 1 µM, 7x7, partner max 10 µM)

>  <Subject of test>
DEL (T-Cell Non-Hodgkin's Lymphoma)

>  <Quantity kind>
combination Emax

>  <Value reported>
1

$$$$

====

- System: T98G (Glioblastoma)
- Assay procedure: combination Emax (second highest fraction inhibited in the dose matrix, 72 h); higher = more inhibition; extreme values may be limits of the assay

>  <Compound>
C=CCn1c(=O)c2cnc(Nc3ccc(N4CCN(C)CC4)cc3)nc2n1-c1cccc(C(C)(C)O)n1 [AZD1775] + C1CN(CCC1(C(=O)N[C@@H](CCO)C2=CC=C(C=C2)Cl)N)C3=NC=NC4=C3C=CN4 [Capivasertib] (first compound max 3 µM, partner max 3 µM)

>  <combination Emax>
0.785

$$$$
>  <Compound>
Cc1cc2ncnn2cc1Nc1ncc2c(n1)n(C1CCOCC1)c(=O)n2C [AZD7648] + C=CCn1c(=O)c2cnc(Nc3ccc(N4CCN(C)CC4)cc3)nc2n1-c1cccc(C(C)(C)O)n1 [AZD1775] (first compound max 10 µM, partner max 1 µM)

>  <combination Emax>
0.711

$$$$
>  <Compound>
CC1(C)CCC(CN2CCN(c3ccc(C(=O)NS(=O)(=O)c4ccc(NCC5CCOCC5)c([N+](=O)[O-])c4)c(Oc4cnc5[nH]ccc5c4)c3)CC2)=C(c2ccc(Cl)cc2)C1 [Venetoclax] + CCN(CCO)CCCOc1ccc2c(Nc3cc(CC(=O)Nc4cccc(F)c4)[nH]n3)ncnc2c1 [AZD2811] (first compound max 1 µM, 7x7, partner max 1 µM)

>  <combination Emax>
0.394

$$$$
>  <Compound>
C[C@@H](c1ccc2nccn2c1)n1nnc2ncc(-c3cnn(C)c3)nc21 [Savolitinib] + CC1(C)CCC(CN2CCN(c3ccc(C(=O)NS(=O)(=O)c4ccc(NCC5CCOCC5)c([N+](=O)[O-])c4)c(Oc4cnc5[nH]ccc5c4)c3)CC2)=C(c2ccc(Cl)cc2)C1 [Venetoclax] (first compound max 1 µM, 7x7, partner max 1 µM)

>  <combination Emax>
0.159

$$$$
>  <Compound>
CN(CCO)CC[C@H](CSc1ccccc1)Nc1ccc(S(=O)(=O)NC(=O)c2ccc(N3CCC([C@@H](O)c4ccccc4-c4ccc(Cl)cc4)CC3)cc2)cc1S(=O)(=O)C(F)(F)F [AZD4320] + Nc1ccn([C@@H]2O[C@H](CO)[C@@H](O)C2(F)F)c(=O)n1 [Gemcitabine] (first compound max 1 µM, 7x7, partner max 0.3 µM)

>  <combination Emax>
0.861

$$$$
>  <Compound>
CN(CCO)CC[C@H](CSc1ccccc1)Nc1ccc(S(=O)(=O)NC(=O)c2ccc(N3CCC([C@@H](O)c4ccccc4-c4ccc(Cl)cc4)CC3)cc2)cc1S(=O)(=O)C(F)(F)F [AZD4320] + CN(C)CCCOc1ccc(-c2ccc3ncc4c(c3c2)n(C2CCOCC2)c(=O)n4C)cn1 [AZD0156] (first compound max 1 µM, 7x7, partner max 1 µM)

>  <combination Emax>
0.126

$$$$

====

Each entry below carries its reported Bliss excess.
- Tested on: Daoy (Other Solid Carcinomas)
- Assay procedure: Bliss excess, mean over the matrix (fraction); higher = more synergy

>  <Compound>
Cn1cnc2c(F)c(Nc3ccc(Br)cc3Cl)c(C(=O)NOCCO)cc21 [Selumetinib] + CC(C)n1c(=O)n(C)c2cnc3cc(F)c(-c4ccc(OCCCN5CCCCC5)nc4)cc3c21 [AZD1390] (first compound max 10 µM, 7x7, partner max 0.3 µM)

>  <Bliss excess>
-0.021

$$$$
>  <Compound>
COc1cc2c(cc1OCCCCCOc1cc3c(cc1OC)C(=O)N1C=C(C)C[C@H]1C=N3)N=C[C@@H]1CC(C)=CN1C2=O [SG3199] + O=C(c1cc(Cc2n[nH]c(=O)c3ccccc23)ccc1F)N1CCN(C(=O)C2CC2)CC1 [Olaparib] (first compound max 0.001 µM, 7x7, partner max 10 µM)

>  <Bliss excess>
-0.0171

$$$$

====

Each entry below carries its reported Bliss excess.
- System: Calu-3 (Lung Adenocarcinoma)
- Assay procedure: Bliss excess, mean over the matrix (fraction); higher = more synergy
Quantity kind: Bliss excess

>  <Compound>
NC1(C(=O)N[C@@H](CCO)c2ccc(Cl)cc2)CCN(c2ncnc3[nH]ccc23)CC1 [Capivasertib] + Cn1cnc2c(F)c(Nc3ccc(Br)cc3Cl)c(C(=O)NOCCO)cc21 [Selumetinib] (first compound max 10 µM, 7x7, partner max 10 µM)

>  <Value reported>
0.0295

$$$$
>  <Compound>
Cc1c2c(nn1C)CSCc1cc(n(C)n1)CSc1cc(c3ccccc3c1)OCCCc1c(C(=O)O)n(C)c3c-2c(Cl)ccc13 [AZD5991] + CS(=O)(=O)CCNCc1ccc(-c2ccc3ncnc(Nc4ccc(OCc5cccc(F)c5)c(Cl)c4)c3c2)o1 [Lapatinib] (first compound max 1 µM, 7x7, partner max 10 µM)

>  <Value reported>
0.0244

$$$$
>  <Compound>
C[C@@H](c1ccc2nccn2c1)n1nnc2ncc(-c3cnn(C)c3)nc21 [Savolitinib] + CC1(C)CCC(CN2CCN(c3ccc(C(=O)NS(=O)(=O)c4ccc(NCC5CCOCC5)c([N+](=O)[O-])c4)c(Oc4cnc5[nH]ccc5c4)c3)CC2)=C(c2ccc(Cl)cc2)C1 [Venetoclax] (first compound max 1 µM, 7x7, partner max 1 µM)

>  <Value reported>
-0.0347

$$$$
>  <Compound>
Cc1cc2ncnn2cc1Nc1ncc2c(n1)n(C1CCOCC1)c(=O)n2C [AZD7648] + COc1cc([C@@H]2c3cc4c(cc3[C@@H](O[C@@H]3O[C@@H]5CO[C@@H](C)O[C@H]5[C@H](O)[C@H]3O)[C@H]3COC(=O)[C@H]23)OCO4)cc(OC)c1O [Etoposide] (first compound max 10 µM, 7x7, partner max 10 µM)

>  <Value reported>
0.1

$$$$
>  <Compound>
CC1(C)CCC(CN2CCN(c3ccc(C(=O)NS(=O)(=O)c4ccc(NCC5CCOCC5)c([N+](=O)[O-])c4)c(Oc4cnc5[nH]ccc5c4)c3)CC2)=C(c2ccc(Cl)cc2)C1 [Venetoclax] + CN(C)CCCOc1ccc(-c2ccc3ncc4c(c3c2)n(C2CCOCC2)c(=O)n4C)cn1 [AZD0156] (first compound max 1 µM, 7x7, partner max 1 µM)

>  <Value reported>
-0.0113

$$$$
>  <Compound>
CCc1c2c(nc3ccc(O)cc13)-c1cc3c(c(=O)n1C2)COC(=O)[C@]3(O)CC [SN-38] + CN(C)CCCOc1ccc(-c2ccc3ncc4c(c3c2)n(C2CCOCC2)c(=O)n4C)cn1 [AZD0156] (first compound max 0.3 µM, 7x7, partner max 1 µM)

>  <Value reported>
0.0092

$$$$
>  <Compound>
Cc1c2c(nn1C)CSCc1cc(n(C)n1)CSc1cc(c3ccccc3c1)OCCCc1c(C(=O)O)n(C)c3c-2c(Cl)ccc13 [AZD5991] + Nc1ccn([C@@H]2O[C@H](CO)[C@@H](O)C2(F)F)c(=O)n1 [Gemcitabine] (first compound max 1 µM, 7x7, partner max 0.3 µM)

>  <Value reported>
-0.0191

$$$$
>  <Compound>
O=C(c1cc(Cc2n[nH]c(=O)c3ccccc23)ccc1F)N1CCN(C(=O)C2CC2)CC1 [Olaparib] + CC1(C)CCC(CN2CCN(c3ccc(C(=O)NS(=O)(=O)c4ccc(NCC5CCOCC5)c([N+](=O)[O-])c4)c(Oc4cnc5[nH]ccc5c4)c3)CC2)=C(c2ccc(Cl)cc2)C1 [Venetoclax] (first compound max 10 µM, 7x7, partner max 1 µM)

>  <Value reported>
-0.0406

$$$$
>  <Compound>
CN(C)CCCOc1ccc(-c2ccc3ncc4c(c3c2)n(C2CCOCC2)c(=O)n4C)cn1 [AZD0156] + C[C@@H]1COCCN1C2=NC(=NC(=C2)C3(CC3)[S@](=N)(=O)C)C4=C5C=CNC5=NC=C4 [AZD6738] (first compound max 1 µM, 7x7, partner max 10 µM)

>  <Value reported>
-0.0205

$$$$
>  <Compound>
COc1nnc2ccc(N3CCC(c4ccc(OCCN5CCN(C)C(=O)[C@H]5C)cc4)CC3)nn12 [AZD5153] + Cc1c2c(nn1C)CSCc1cc(n(C)n1)CSc1cc(c3ccccc3c1)OCCCc1c(C(=O)O)n(C)c3c-2c(Cl)ccc13 [AZD5991] (first compound max 1 µM, 7x7, partner max 1 µM)

>  <Value reported>
-0.0288

$$$$
>  <Compound>
Cc1c2c(nn1C)CSCc1cc(n(C)n1)CSc1cc(c3ccccc3c1)OCCCc1c(C(=O)O)n(C)c3c-2c(Cl)ccc13 [AZD5991] + C1CN(CCC1(C(=O)N[C@@H](CCO)C2=CC=C(C=C2)Cl)N)C3=NC=NC4=C3C=CN4 [Capivasertib] (first compound max 1 µM, 7x7, partner max 3 µM)

>  <Value reported>
0.0134

$$$$
>  <Compound>
C[C@@H](Oc1cc(-c2cnn(C3CCNCC3)c2)cnc1N)c1c(Cl)ccc(F)c1Cl [Crizotinib] + Cn1cnc2c(F)c(Nc3ccc(Br)cc3Cl)c(C(=O)NOCCO)cc21 [Selumetinib] (first compound max 10 µM, 7x7, partner max 10 µM)

>  <Value reported>
-0.0507

$$$$
>  <Compound>
NC1(C(=O)N[C@@H](CCO)c2ccc(Cl)cc2)CCN(c2ncnc3[nH]ccc23)CC1 [Capivasertib] + CCN(CCO)CCCOc1ccc2c(Nc3cc(CC(=O)Nc4cccc(F)c4)[nH]n3)ncnc2c1 [AZD2811] (first compound max 10 µM, 7x7, partner max 1 µM)

>  <Value reported>
0.0092

$$$$
